- target.of.assay: Retinoic acid receptor RXR-alpha (Homo sapiens)
- assay.overview: qHTS assay to identify small molecule agonists of the RXR signaling pathway (AID 1159527); note: % is set by controls: 0 for no effect and ±100 for the full control effect; nearly all actives have a fitted effect of over 35% in size
- condition.context: HEK293T RXRa-UAS-bla, beta-lactamase ratio, 16 h; series mostly up to 76.8 µM
Inconclusive results are not listed. Active and inactive are the calls of the source. Calls come from the whole dose curve.
property.measured: activation

- compound: "COc1cc2c(cc1OC)[C@@H]1CC(=O)[C@@H](CC(C)C)CN1CC2"
  property.measured: "activation"
  result: "inactive"
- compound: "CN(C)c1ccc(C=O)cc1"
  property.measured: "activation"
  result: "inactive"
- compound: "CC(CO)c1ccccc1 (centres undefined)"
  property.measured: "activation"
  result: "inactive"
- compound: "COCCOCCOCCOCCO"
  property.measured: "activation"
  result: "inactive"
- compound: "O=P(O)(O)OP(=O)(O)O"
  property.measured: "activation"
  result: "inactive"

Would you mind giving activation for every compound in the list below?
1. C[C@@H](Oc1ccc(CNC(=O)c2cccnc2Oc2ccc3c(c2)OCO3)c(F)c1)C(=O)O
2. O=C1c2ccccc2C(=O)c2cc(S(=O)(=O)O)ccc21
3. COc1ccc(S(=O)(=O)N2c3ccc(Cl)cc3[C@@](O)(c3ccccc3Cl)[C@H]2C(=O)N2CCC[C@@H]2C(N)=O)cc1OC

Result ::
inactive
inactive
inactive

Would you mind giving activation for every compound in the list below?
1. NS(=O)(=O)c1cc2c(cc1Cl)CN(C1CCCCC1)C2=O
2. C=C(C)C(=O)OCc1ccccc1
3. CCOC(=O)[C@H](CCc1ccccc1)N[C@@H](C)C(=O)N1C(=O)N(C)C[C@H]1C(=O)O
4. CC(=O)OC(C)OC(=O)C(C)c1ccc(-c2ccccc2)c(F)c1 (centres undefined)
5. CCCOC(OCCC)OCCC
6. CC(C)=O
7. Cc1ccccc1N=O

Result ::
1: inactive; 2: inactive; 3: inactive; 4: inactive; 5: inactive; 6: inactive; 7: inactive

Would you mind giving activation for every compound in the list below?
1. CC(=O)c1ccc2c(c1)Cc1ccccc1-2
2. O=C(OCc1ccccc1)C(=O)OCc1ccccc1
3. CC(C)(C)c1nnc(NS(=O)(=O)c2ccc(N)cc2)s1
4. O=C(O)c1cc(Cl)cc([N+](=O)[O-])c1Cl
5. CCn1ccc(NS(=O)(=O)c2ccc(N)cc2)nc1=O
6. C[C@@H](O)[C@H]1C(=O)N2C(C(=O)O)=C(SCCN=CN)C[C@H]12
7. CC1(C)S[C@@H]2[C@H](N=CN3CCCCCC3)C(=O)N2[C@H]1C(=O)O
8. CC(C)N(c1ccccc1)C(C)C

Result ::
1. inactive
2. inactive
3. inactive
4. inactive
5. inactive
6. inactive
7. inactive
8. inactive

Would you mind giving activation for every compound in the list below?
1. O=S(O)(O)=S
2. CCOC(=O)/C=C/c1ccccc1

Result ::
1. 4.57% [at 6.98 µM] (inactive)
2. inactive

Would you mind giving activation for every compound in the list below?
1. O=C(NCCc1c[nH]c2ccccc12)c1cccnc1
2. O=S(=O)(O)c1ccc2cc(O)c(S(=O)(=O)O)cc2c1
3. CC(=O)NCc1c(I)c(NC(C)=O)c(I)c(C(=O)O)c1I
4. C=Cc1ccccn1
5. C=C(C)C(=O)OCCOP(=O)(O)OCCOC(=O)C(=C)C
6. COc1ccc2nc(SCc3ncc(C)c(OC)c3C)[nH]c2c1

Result ::
inactive
inactive
inactive
inactive
inactive
inactive

Would you mind giving activation for every compound in the list below?
1. CC(=O)Nc1ccc(S(=O)(=O)Nc2ccc([N+](=O)[O-])cc2)cc1
2. O=C(Nc1ccc(Cl)c(Cl)c1)C1CC1
3. O=C(O)c1ccc(Cl)cc1Cl
4. C#CC(C)N(C)C(=O)Nc1ccc(Cl)cc1 (centres undefined)
5. O=C1c2cccc3c2[C@H](CCC3)CN1[C@@H]1CN2CCC1CC2
6. CN=C(NC#N)Nc1ccc(C2=NNC(=O)CC2C)cc1 (centres undefined)

Result ::
1. inactive
2. inactive
3. inactive
4. inactive
5. inactive
6. inactive

Would you mind giving activation for every compound in the list below?
1. C[Si](C)(C)C
2. CC(C)CCCCOC(=O)c1ccccc1C(=O)OCCCCC(C)C
3. CCOC(=O)c1ccc(OC(=O)CCCCCN=C(N)N)cc1
4. Cc1cc(Cl)c(C)cc1Cl
5. C[C@@H]1O[C@@H](O[C@@H]2[C@@H](O)[C@H](OCCc3ccc(O)c(O)c3)O[C@H](CO[C@@H]3O[C@H](CO)[C@@H](O)[C@H](O)[C@H]3O)[C@H]2OC(=O)/C=C/c2ccc(O)c(O)c2)[C@H](O)[C@H](O)[C@H]1O
6. O=C1O[C@@H]2[C@@H](O)[C@H](O)O[C@@H]2[C@H]1O
7. C=C1CC/C=C(\C)CC[C@@H]2[C@@H]1CC2(C)C
8. CO[C@@H]1[C@@H](OC(N)=O)[C@@H](O)[C@H](Oc2ccc3c(O)c(NC(=O)c4ccc(O)c(CC=C(C)C)c4)c(=O)oc3c2C)OC1(C)C

Result ::
inactive
inactive
inactive
inactive
inactive
inactive
inactive
inactive

Would you mind giving activation for every compound in the list below?
1. CCO[Si](CCCS)(OCC)OCC
2. COC(=O)C1CC(=O)C(C(=O)OC)CC1=O (centres undefined)
3. Cc1cccc(C)c1NC(=O)c1ccccc1C(=O)O
4. C[C@H](N)[C@H](O)c1cccc(O)c1

Result ::
["inactive", "10.5% [at 6.98 µM] (inactive)", "inactive", "inactive"]

====

- assay.overview: qHTS assay to identify small molecule antagonists of the thyroid receptor (TR) signaling pathway - cell viability counter screen (AID 743064); note: nearly all actives have a fitted effect of over 50% in size
- condition.context: GH3.TRE-Luc viability, CellTiter-Fluor, 24 h; series mostly up to 70.3 µM
Records with an inconclusive call do not appear. Calls of active or inactive are those of the source. The call rests on the fitted dose curve; in most records, active means well fitted cell-killing curve with a large enough effect in the repeat runs; inconclusive means weak or mixed curves, or effect the other way; inactive means no such curve, though single readings can be large or run the other way.
Outcomes you can answer with include only these: y = active, n = inactive

Example results:
- compound: "CC(=C(CCOC(=O)C(C)C)SSC(CCOC(=O)C(C)C)=C(C)N(C=O)Cc1cnc(C)nc1N)N(C=O)Cc1cnc(C)nc1N"
  assigned.category: "n"
- compound: "COc1ccc2c(c1OC)C(=O)O[C@@H]2[C@H]1c2c(cc3c(c2OC)OCO3)CCN1C"
  assigned.category: "y"
- compound: "CCOc1cc(NC(C)=O)ccc1C(=O)OC"
  assigned.category: "n"
- compound: "CCCCCCCCOS(=O)(=O)O"
  assigned.category: "n"

Here is the next item to consider.
Query :: Query: recorded result category for CCc1ccc(C=O)cc1 in this test
Result :: n

====

- assay.overview: qHTS assay for small molecules that induce genotoxicity in human embryonic kidney cells expressing luciferase-tagged ATAD5 (AID 651632); note: % is set by controls: 0 for no effect and ±100 for the full control effect; nearly all actives have a fitted effect of over 15% in size
- condition.context: HEK293T ATAD5-luciferase induction, 16 h; series mostly up to 83.3 µM
Records with an inconclusive call do not appear. Activity calls are given as the source filed them. Calls come from the whole dose curve; as a rule, active = well fitted activation curve with a large enough effect in the repeat runs; inconclusive = weak or mixed curves; inactive = no such curve, though single readings can be large or run the other way.
property.measured: outcome

The following compounds have reported results that may help.
- compound: "Cc1cccc(C)c1OCC(C)N (stereo unspecified)"
  outcome: "inactive"
- compound: "C=Cc1ccccn1"
  outcome: "inactive"
- compound: "Cc1cc(Cl)c(C)cc1Cl"
  outcome: "inactive"
- compound: "CCCCCCOc1ccccc1C(N)=O"
  outcome: "inactive"
- compound: "c1ccc2nccnc2c1"
  outcome: "inactive"

Would you mind giving outcome for every compound in the list below?
1. C=COCCOCCOCCOC=C
2. Cc1ccc2c(c1)OCC(=O)CO2
3. O=C(O)CCSSCCC(=O)O
4. CCN1CCc2nc(N)oc2CC1
5. CC(COC(C)(C)C)OCCCO (stereo unspecified)
6. O=C(CCN1CCN(CCO)CC1)N1c2ccccc2Sc2ccc(C(F)(F)F)cc21

Result ::
1: inactive; 2: inactive; 3: inactive; 4: inactive; 5: inactive; 6: inactive

====

- assay.overview: qHTS assay for small molecules that induce genotoxicity in human embryonic kidney cells expressing luciferase-tagged ATAD5 - cell viability (AID 651634); note: nearly all actives have a fitted effect of over 25% in size; note: potency is the fitted concentration of half-maximal effect
- condition.context: HEK293T ATAD5-luc cells viability, CellTiter-Fluor, 15.5 h; series mostly up to 83.3 µM
Inconclusive results are not listed. The source made the active and inactive calls. Calls follow the shape of the full dose curve.
property.measured: Potency

The following molecules have reported results that may help.
- molecule: "CNS(=O)(=O)CCc1ccc2[nH]cc(C3CCN(C)CC3)c2c1"
  Potency: "inactive"
- molecule: "CC(C)(C)OC(=O)c1ccc(O)cc1"
  Potency: "inactive"
- molecule: "CC(C)CCCC(C)(C)O"
  Potency: "inactive"
- molecule: "NC(CO)C(=O)NNCc1ccc(O)c(O)c1O (configuration not stated)"
  Potency: "inactive"
- molecule: "CCOC(=O)CC(=O)c1ccccc1"
  Potency: "inactive"
- molecule: "CN(C)C(=O)CNC(=O)Cc1ccccc1"
  Potency: "inactive"

The record that follows has no Potency shown yet.
Data point: Nc1ccc([N+](=O)[O-])c(N)c1 ; Potency = 47.3 µM (active)
